Assay: Inhibition of HMVE cell proliferation at 0.5 uM relative to control
Type: functional
Conditions: Homo sapiens
Measured attribute: inhibition at 0.5 µM
Field note: include the unit after the figure.

According to the records, this compound `O=C(O)/C=C/c1ccc(-c2ccc(O)c(C34CC5CC(CC(C5)C3)C4)c2)c(Cl)c1` displays inhibition at 0.5 µM of 60%

Measured inhibition at 0.5 µM, `O=C(O)c1ccc2c(Cl)c(-c3ccc(O)c(C45CC6CC(CC(C6)C4)C5)c3)ccc2c1` : 45%

Reported inhibition at 0.5 µM ( `O=C(O)/C=C/c1ccc(-c2ccc(O)c(C34CC5CC(CC(C5)C3)C4)c2)cc1` ) = 90%

Reported inhibition at 0.5 µM ( `Oc1ccc2cc(-c3ccc(O)c(C45CC6CC(CC(C6)C4)C5)c3)ccc2c1` ) = 15%

The recorded inhibition at 0.5 µM for entry `CC1(C)CCC(C)(C)c2cc(/C(=N\O)c3ccc4cc(C(=O)O)ccc4c3)ccc21` equals 30%

// `O=C(O)c1ccc2ccc(-c3ccc(O)c(C45CC6CC(CC(C6)C4)C5)c3)cc2c1` : inhibition at 0.5 µM value = 15%

get_value(item= `CC1=C(/C=C/C(C)=C/C=C/C(C)=C/C(=O)O)C(C)(C)CCC1` , readout=inhibition at 0.5 µM) returns 10%
